Molecular target: human prostanoid EP4 receptor (Homo sapiens)
Construct: expressed in transfected cells
Sequence (P35408 whole entry): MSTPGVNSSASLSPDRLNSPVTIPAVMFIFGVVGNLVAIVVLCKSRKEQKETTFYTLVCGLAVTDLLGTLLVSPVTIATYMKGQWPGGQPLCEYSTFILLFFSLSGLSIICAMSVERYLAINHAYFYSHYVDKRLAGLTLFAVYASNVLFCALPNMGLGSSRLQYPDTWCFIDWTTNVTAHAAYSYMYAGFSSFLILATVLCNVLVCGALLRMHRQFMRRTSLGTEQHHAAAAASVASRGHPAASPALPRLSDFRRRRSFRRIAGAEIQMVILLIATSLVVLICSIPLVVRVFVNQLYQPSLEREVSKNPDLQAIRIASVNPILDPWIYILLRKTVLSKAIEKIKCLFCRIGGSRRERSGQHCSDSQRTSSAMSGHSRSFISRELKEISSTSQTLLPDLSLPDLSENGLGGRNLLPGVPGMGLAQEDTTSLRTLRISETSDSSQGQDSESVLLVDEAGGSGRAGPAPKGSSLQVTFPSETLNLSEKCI
Experiment: FLIPR Ca2+ signaling antagonist assay, EP4 receptor stable cell line
Assay type: cell-based
Conditions: human recombinant EP4 + chimeric Gqs in HEK-293 EBNA cells; standard agonist PGE2; NA = no antagonism or Kb>=10,000 nM
Description: The above compounds were tested for PG antagonist activity as follows using human recombinant prostanoid receptor (DP1, EP1-4, FP, IP and TP) stable cell lines: […] Ca^2+ signaling studies were performed using a FLIPR TETRA system (Molecular Devices, Sunnyvale, Calif., USA) in the 384-format. […] Cells were excited with LED (light emitting diode) excitation at 470-495 nm and emission was measured through an emission filter at 515-575 nm. Assay plates were read for 3.5 minutes using the FLIPR^TETRA. […]
Structures can show the parent of a compound that is named as a salt.
Observed property: Kb

CC(C)Cn1ncc2cc(C(F)(F)F)cc(Cn3ncc4cc(C(=O)O)ccc43)c21; 28 nM
Cc1nn(Cc2cc(Br)cc3cnn(CC(C)C)c23)c2ncc(C(=O)O)cc12 [Compound 54, HCl salt]; 380 nM
CC(C)Cn1ncc2cc(OC(F)(F)F)cc(Cn3cnc4cc(C(=O)O)ccc43)c21; 6 nM
CC(C)Cn1ncc2cc(OC(F)(F)F)cc(Cn3ncc4cc(C(=O)O)ccc43)c21; 5 nM
CC(C)Cn1ncc2cc(Cl)cc(Cn3cnc4cc(C(=O)O)ccc43)c21; 80 nM
CC(C)Cn1ncc2cc(C(F)(F)F)cc(Cn3cnc4cc(C(=O)O)ccc43)c21; 80 nM
CC(C)Cn1ncc2cc(Cl)cc(Cn3nc(N)c4cc(C(=O)O)ccc43)c21; 60 nM
CC(C)Cn1ncc2cc(Cl)cc(Cn3ccc4cc(C(=O)O)cnc43)c21; 90 nM
Cc1nn(Cc2cc(Br)cc3cnn(CC(C)C)c23)c2ccc(C(=O)O)cc12; 90 nM

----------
molecular target: human prostanoid IP receptor (Homo sapiens, UniProt P43119); construct: expressed in transfected cells; test: FLIPR Ca2+ signaling antagonist assay, IP receptor stable cell line; assay type: cell-based; conditions: human recombinant IP in HEK-293 EBNA cells; standard agonist Cicaprost; NA = no antagonism or Kb>=10,000 nM
Sequence (P43119 whole entry): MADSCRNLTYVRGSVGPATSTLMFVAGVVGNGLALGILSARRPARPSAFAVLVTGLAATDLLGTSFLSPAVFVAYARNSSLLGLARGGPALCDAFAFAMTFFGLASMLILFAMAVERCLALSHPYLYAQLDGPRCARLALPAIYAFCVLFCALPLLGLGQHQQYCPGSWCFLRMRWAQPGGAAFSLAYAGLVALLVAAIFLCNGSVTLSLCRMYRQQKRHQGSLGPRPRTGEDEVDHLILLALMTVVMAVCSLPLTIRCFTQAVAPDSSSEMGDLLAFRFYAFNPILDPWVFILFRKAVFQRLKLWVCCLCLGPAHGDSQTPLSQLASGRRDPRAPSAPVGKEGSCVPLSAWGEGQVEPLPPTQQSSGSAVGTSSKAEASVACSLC
Kb for assorted compounds
Observed property: Kb

CC(C)Cn1ncc2cc(F)cc(Cn3ncc4cc(C(=O)O)ccc43)c21; > 10 µM
CC(C)Cn1ncc2cc(Cl)cc(Cn3cnc4cc(C(=O)O)ccc43)c21; > 10 µM
CC(C)Cn1ncc2cc(Cl)cc(Cn3ncc4cc(C(=O)O)ccc43)c21; > 10 µM
CCCn1ncc2cc(Cl)cc(Cn3ncc4cc(C(=O)O)ccc43)c21; > 10 µM
CC(C)Cn1ncc2cc(Cl)cc(Cn3ncc4cc(C(=O)O)cnc43)c21; 8.9 µM

----------
Kb for assorted compounds
Molecular target: human prostanoid DP1 receptor (Homo sapiens, UniProt Q13258)
Construct: expressed in transfected cells
Sequence (Q13258 1-359): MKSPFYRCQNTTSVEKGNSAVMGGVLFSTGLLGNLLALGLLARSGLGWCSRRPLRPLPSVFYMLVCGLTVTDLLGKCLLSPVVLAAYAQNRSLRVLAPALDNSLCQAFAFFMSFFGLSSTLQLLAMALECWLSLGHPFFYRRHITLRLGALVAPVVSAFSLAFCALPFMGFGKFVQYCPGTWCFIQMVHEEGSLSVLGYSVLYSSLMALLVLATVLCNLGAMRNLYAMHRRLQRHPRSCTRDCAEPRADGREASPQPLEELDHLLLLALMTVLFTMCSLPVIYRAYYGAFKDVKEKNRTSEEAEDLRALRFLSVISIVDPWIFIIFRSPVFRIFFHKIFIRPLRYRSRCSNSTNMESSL
Experiment: FLIPR Ca2+ signaling antagonist assay, DP1 receptor stable cell line
Format: cell-based
Settings: human recombinant DP1 + chimeric Gqs in HEK-293 EBNA cells; standard agonist BW 245C; NA = no antagonism or Kb>=10,000 nM
Observed property: Kb (nM)

CC(C)Cn1ncc2cc(OC(F)(F)F)cc(Cn3cnc4cc(C(=O)O)ccc43)c21; 5200
CC(C)Cn1ncc2cc(C(F)(F)F)cc(Cn3ncc4cc(C(=O)O)ccc43)c21; 1000
CC(C)Cn1ncc2cc(Br)cc(Cn3ncc4cc(C(=O)O)ccc43)c21; 590
CCCn1ncc2cc(Cl)cc(Cn3ncc4cc(C(=O)O)ccc43)c21; 5500
CC(C)Cn1ncc2cc(Cl)cc(Cn3nc(N)c4cc(C(=O)O)ccc43)c21; 3700
CC(C)Cn1ncc2cc(F)cc(Cn3ncc4cc(C(=O)O)ccc43)c21; 1700
CC(C)Cn1ncc2cc(OC(F)(F)F)cc(Cn3ncc4cc(C(=O)O)ccc43)c21; 300
CC(C)Cn1ncc2cc(Cl)cc(Cn3ncc4cc(C(=O)O)ccc43)c21; 460
CCC(CC)Cn1ncc2cc(Br)cc(Cn3ncc4cc(C(=O)O)ccc43)c21; 1400
Cc1nn(Cc2cc(Br)cc3cnn(CC(C)C)c23)c2ccc(C(=O)O)cc12; 640
